B1: Dystrobrevin alpha, residues 235 to 294; numbered along this chain, Q9Y4J8 (parent)
chain: ENVFHPVECSYCHSESMMGFRYRCQQCHNYQLCQDCFWRGHAGGSHSNQHQMKEYTSWKS

# Variants of: B1
# experiment: abundance fitness (aPCA) (normalised: wild type 0, dead -1); higher = more abundant; growth selection in yeast, the domain comes from the species named
# measurement.context: Homo sapiens
Is abundance fitness at least -0.2? Then rule met. If not, rule not met.

Completed entries (count: 3):
S14M: rule met
C24R: rule not met
F20Y: rule met

In the following, a different variant is considered.
Query block: Entry `N2K` : is its abundance fitness no less than -0.2?
Result block: rule met

Sourced from the Human Domainome abundance scans (Beltran et al. 2025)
